Attribution: the supplement of paper PMC7877785

# measurement-description: self-splicing fitness, log relative to wild type (ln ratio); higher = more splicing; Tetrahymena group I intron in knt gene, E. coli kanamycin selection, DiMSum; sequences stand for … in CUCUCU…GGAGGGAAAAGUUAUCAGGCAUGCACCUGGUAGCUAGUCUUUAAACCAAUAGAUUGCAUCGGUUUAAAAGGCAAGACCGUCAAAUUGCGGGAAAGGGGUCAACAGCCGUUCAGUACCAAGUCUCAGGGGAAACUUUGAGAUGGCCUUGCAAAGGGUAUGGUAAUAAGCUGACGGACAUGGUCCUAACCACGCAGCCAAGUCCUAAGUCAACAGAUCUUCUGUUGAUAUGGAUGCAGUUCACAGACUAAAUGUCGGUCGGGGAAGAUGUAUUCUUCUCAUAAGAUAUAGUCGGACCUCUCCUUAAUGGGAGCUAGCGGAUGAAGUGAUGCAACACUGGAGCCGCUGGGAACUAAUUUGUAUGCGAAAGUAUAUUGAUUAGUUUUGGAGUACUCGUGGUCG;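 also: selection with 25 µg/mL kanamycin versus none on LB agar overnight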
# measurement-conditions: 37 °C
measured-parameter: self-splicing fitness (ln)
Numbers only.

These solved cases illustrate the format of a correct answer.
GCACAGCAAUAUUACGACAU    -0.217
GUCAAGCAAUAUUACGCGAU    -3.64
GUACAGCAAUAUUACGUCAA    -2.38
GUCAAGCAAUAUUACGGUAG    -4.66
GCAGAGCAAUAUUACGGCGU    -0.614
UUAUAGCAAUAUUACGUUUU    -2.64

For each listed entry, give its self-splicing fitness (ln).
1. GGACAGCAAUAUUACGCAUU
2. GCGUAGCAAUAUUACGAAUG

1. -0.622
2. -0.603

###

# measurement-description: self-splicing fitness, log relative to wild type (ln ratio); higher = more splicing; Tetrahymena group I intron in knt gene, E. coli kanamycin selection, DiMSum; sequences stand for … in CUCUCU…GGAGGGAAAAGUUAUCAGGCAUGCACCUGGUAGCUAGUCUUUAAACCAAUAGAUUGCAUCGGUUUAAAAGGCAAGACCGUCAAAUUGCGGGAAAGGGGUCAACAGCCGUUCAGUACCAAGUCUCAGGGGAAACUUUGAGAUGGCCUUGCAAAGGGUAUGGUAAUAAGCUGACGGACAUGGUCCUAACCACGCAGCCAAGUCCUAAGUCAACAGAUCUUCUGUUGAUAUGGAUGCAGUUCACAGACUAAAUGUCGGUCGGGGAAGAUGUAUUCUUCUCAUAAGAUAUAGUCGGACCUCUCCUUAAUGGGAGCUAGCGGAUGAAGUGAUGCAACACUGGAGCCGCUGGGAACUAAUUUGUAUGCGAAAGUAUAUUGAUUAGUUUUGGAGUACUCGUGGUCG
# measurement-conditions: 30 °C
Assignment: determine reported self-splicing fitness (ln) for the given sequences.
Answers are plain numbers.

AACUAGCAAUAUUACGCCCA    -0.951
CCCGAGCAAUAUUACGGAAA    -2.2
AGUAAGCAAUAUUACGCCAG    -3.63
CGCGAGCAAUAUUACGAGUC    -2.7
GAUAAGCAAUAUUACGCUAU    -2.91

Your task in this section: give self-splicing fitness (ln) for each listed record.
1. ACCAAGCAAUAUUACGGUUC
2. UCCCAGCAAUAUUACGAAGG
3. AGAAAGCAAUAUUACGGUGG

1: -3.36; 2: -3.68; 3: -3.11

###

# measurement-description: self-splicing fitness, log relative to wild type (ln ratio); higher = more splicing; Tetrahymena group I intron in knt gene, E. coli kanamycin selection, DiMSum; sequences stand for … in CUCUCU…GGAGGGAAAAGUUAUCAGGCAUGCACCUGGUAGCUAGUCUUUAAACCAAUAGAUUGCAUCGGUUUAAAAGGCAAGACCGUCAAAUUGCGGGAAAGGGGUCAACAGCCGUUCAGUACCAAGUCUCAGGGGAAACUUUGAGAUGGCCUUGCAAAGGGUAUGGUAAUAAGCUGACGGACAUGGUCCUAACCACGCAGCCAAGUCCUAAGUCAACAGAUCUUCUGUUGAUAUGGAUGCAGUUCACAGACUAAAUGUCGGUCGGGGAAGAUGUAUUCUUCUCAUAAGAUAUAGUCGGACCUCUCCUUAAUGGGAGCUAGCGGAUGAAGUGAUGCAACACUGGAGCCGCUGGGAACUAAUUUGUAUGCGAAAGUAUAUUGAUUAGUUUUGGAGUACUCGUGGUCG
# measurement-conditions: 37 °C
Quick rule: self-splicing fitness (ln) of at least -1 means 1, below that means 0.

UGUAAGCAAUAUUACGCUUU    0
AGGUAGCAAUAUUACGUGAG    1

Identify whether the reported self-splicing fitness (ln) of the following sequence is -1 or greater: CCAUAGCAAUAUUACGCACA
0

Does the sequence CUAAAGCAAUAUUACGGCUG have recorded self-splicing fitness (ln) that is -1 or more?
1

###

# measurement-description: self-splicing fitness, log relative to wild type (ln ratio); higher = more splicing; Tetrahymena group I intron in knt gene, E. coli kanamycin selection, DiMSum; sequences stand for … in CUCUCU…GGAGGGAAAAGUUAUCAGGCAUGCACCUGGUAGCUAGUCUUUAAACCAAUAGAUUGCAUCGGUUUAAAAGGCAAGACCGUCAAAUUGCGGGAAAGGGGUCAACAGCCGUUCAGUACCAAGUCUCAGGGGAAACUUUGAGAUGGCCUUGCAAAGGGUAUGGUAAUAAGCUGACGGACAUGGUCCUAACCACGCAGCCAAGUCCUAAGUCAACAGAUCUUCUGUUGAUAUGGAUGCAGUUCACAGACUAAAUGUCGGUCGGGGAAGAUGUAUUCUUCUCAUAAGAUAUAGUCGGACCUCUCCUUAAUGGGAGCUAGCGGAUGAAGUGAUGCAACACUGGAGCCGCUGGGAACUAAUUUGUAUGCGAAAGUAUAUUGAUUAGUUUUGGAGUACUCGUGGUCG
# measurement-conditions: 30 °C
Short version: self-splicing fitness (ln) at least -2 is 1.0, less is 0.0.

Here are 2 sequences together with their reported answers.
UUGCAGCAAUAUUACGGCAA    0.0
AAAAAGCAAUAUUACGCGAC    0.0

Quick check, self-splicing fitness (ln) >= -2? UCCCAGCAAUAUUACGUCGG
0.0

For this sequence, is measured self-splicing fitness (ln) -2 or higher? UAUUAGCAAUAUUACGCACC
0.0

Please check the record ACAUAGCAAUAUUACGUAAG and state if its self-splicing fitness (ln) is at or above -2.
1.0

Is the recorded value of self-splicing fitness (ln) equal to or greater than -2 for this sequence? UGGGAGCAAUAUUACGAGCG
1.0

self-splicing fitness (ln) >= -2 for UUUUAGCAAUAUUACGCUUG ?
1.0

Could you please find out whether AAUAAGCAAUAUUACGGACU has self-splicing fitness (ln) that meets -2 or exceeds it?
1.0

Quick check: does CGUCAGCAAUAUUACGACCC have self-splicing fitness (ln) greater than or equal to -2?
1.0

Reported self-splicing fitness (ln) reaches at least -2 for UCCAAGCAAUAUUACGCUUC ?
0.0

Record CAAAAGCAAUAUUACGGGUG ; criterion: self-splicing fitness (ln) no lower than -2. Met?
1.0

###

# measurement-description: self-splicing fitness, log relative to wild type (ln ratio); higher = more splicing; Tetrahymena group I intron in knt gene, E. coli kanamycin selection, DiMSum; sequences stand for … in CUCUCU…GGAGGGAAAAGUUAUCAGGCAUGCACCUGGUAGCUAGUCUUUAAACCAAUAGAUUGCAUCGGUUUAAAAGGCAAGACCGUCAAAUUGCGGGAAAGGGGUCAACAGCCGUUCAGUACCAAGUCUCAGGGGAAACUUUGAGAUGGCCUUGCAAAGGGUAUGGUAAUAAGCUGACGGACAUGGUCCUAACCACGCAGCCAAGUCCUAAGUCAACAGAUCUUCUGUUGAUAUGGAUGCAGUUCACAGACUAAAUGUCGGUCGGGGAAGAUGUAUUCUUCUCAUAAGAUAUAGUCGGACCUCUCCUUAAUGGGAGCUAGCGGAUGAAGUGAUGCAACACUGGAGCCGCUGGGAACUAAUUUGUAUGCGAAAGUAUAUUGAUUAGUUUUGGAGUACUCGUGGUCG
# measurement-conditions: 37 °C
measured-parameter: self-splicing fitness (ln)
One number for each entry.

Solved cases (3 shown):
GGCUAGCAAUAUUACGUUGG    -3.24
CGGUAGCAAUAUUACGCACG    -1.59
GUCCAGCAAUAUUACGCAAG    -1.28

Batch request: self-splicing fitness (ln) for each of the following sequences.
1. GGGCAGCAAUAUUACGGUCC
2. GCAUAGCAAUAUUACGCGAU
3. AGGAAGCAAUAUUACGACCU
4. GUUGAGCAAUAUUACGCAUU

-2.14
-1.93
-2.29
-2.45

Required: self-splicing fitness (ln), one value per sequence below.
1. AAACAGCAAUAUUACGCGUA
2. GCACAGCAAUAUUACGUCGC
3. CAAAAGCAAUAUUACGUACG
4. GUCGAGCAAUAUUACGAACA
5. CCGCAGCAAUAUUACGUCGG
6. AAGAAGCAAUAUUACGCAUA
7. GUGGAGCAAUAUUACGAAAC
8. AGGCAGCAAUAUUACGAGAG

-0.734
-1.67
0.143
-0.344
-2.28
-0.0901
-2.23
-2.79

Below is a list of sequences. For each, state its recorded self-splicing fitness (ln).
1. CAUAAGCAAUAUUACGAGUA
2. ACGUAGCAAUAUUACGCAAC

-1.45
-2.17
